- SYSTEM_TESTED: Cytochrome P450 1B1 (Homo sapiens)
- Sequence (Q16678 whole entry): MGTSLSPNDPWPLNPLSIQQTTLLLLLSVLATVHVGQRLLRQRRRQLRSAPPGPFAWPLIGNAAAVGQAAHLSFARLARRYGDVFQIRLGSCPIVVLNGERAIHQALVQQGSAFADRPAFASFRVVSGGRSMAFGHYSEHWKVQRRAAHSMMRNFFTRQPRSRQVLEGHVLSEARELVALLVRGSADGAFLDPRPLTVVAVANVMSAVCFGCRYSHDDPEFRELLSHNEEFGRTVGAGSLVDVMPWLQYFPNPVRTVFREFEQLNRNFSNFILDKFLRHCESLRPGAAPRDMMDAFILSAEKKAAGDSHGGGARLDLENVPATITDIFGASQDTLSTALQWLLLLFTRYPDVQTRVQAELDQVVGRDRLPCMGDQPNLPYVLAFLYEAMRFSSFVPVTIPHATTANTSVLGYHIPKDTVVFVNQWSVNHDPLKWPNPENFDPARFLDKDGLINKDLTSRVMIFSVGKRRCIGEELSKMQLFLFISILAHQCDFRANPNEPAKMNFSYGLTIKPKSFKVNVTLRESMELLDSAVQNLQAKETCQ
- METHOD_NOTES: Inhibition of ethoxyresorufin O-deethylation (EROD) in bicistronic bacterial membranes expressing human cytochrome P450 1B1
pIC50: −log10 of the molar value.
Lab note: compare pIC50 against 6. Equal or greater, write criterion met. Smaller, write criterion not met.

Before answering, review these 3 worked examples.
Asked: Textbook exercise: given the entry COc1cc(/C=C/c2cc(OC)cc(OC)c2)cc(OC)c1 , state whether its pIC50 is greater than or equal to 6.
Given back: criterion not met

Asked: Does the reported pIC50 for Oc1cc(O)cc(/C=C/c2ccc(O)cc2O)c1 fall at or above the 6 mark?
Given back: criterion not met

Asked: Form field: pIC50 at least 6? Entry: COc1cc(/C=C/c2ccc(OC)cc2F)cc(OC)c1
Given back: criterion met

Continuing:
Asked: Would you say COc1cc(/C=C/c2cc(OC)c(OC)c(OC)c2)cc(OC)c1 shows pIC50 at minimum 6?
Given back: criterion not met

Asked: For this molecule, is measured pIC50 6 or higher? COc1cc(/C=C/c2cccs2)cc(OC)c1
Given back: criterion met

Asked: # bool: pIC50 of COc1cc(/C=N/c2ccc(OC)cc2OC)cc(OC)c1 >= 6
Given back: criterion not met

Asked: Does COc1cc(/C=C/c2ccc(OC)c(OC)c2)cc(OC)c1 [(E)-3,4,3',5'-TETRAMETHOXYSTILBENE] have a reported pIC50 of at least 6?
Given back: criterion not met

* * *

- Tested on: CYP1B1 versus CYP1A2
- METHOD_NOTES: Selectivity ratio for Cytochrome P450 1B1 compared to Cytochrome P450 1A2
- Assay type: ADME
- EXPERIMENTAL_CONDITIONS: human
Recorded selectivity ratio for the following compounds
// return just the number, without any unit appended

Here's what some known entries look like.
Asked: Request the reported selectivity ratio associated with COc1cc(/C=C/c2cc(OC)c(OC)c(OC)c2)cc(OC)c1
Given back: 0.29

Asked: Given the entry COc1cc(/C=C/c2ccc(OC)cc2F)cc(OC)c1 , report its measured selectivity ratio.
Given back: 60

Asked: // query selectivity ratio value for entry Oc1cc(O)cc(/C=C/c2ccc(O)cc2O)c1
Given back: 4.4

Continue with the next compound.
Asked: Param item = COc1cc(OC)cc(C(=O)Nc2ccc(OC)cc2OC)c1 ; retrieve measured selectivity ratio.
Given back: 96

* * *

- Tested on: CYP1B1 versus CYP1A1
- METHOD_NOTES: Selectivity ratio for Cytochrome P450 1B1 compared to Cytochrome P450 1A1
- Format: ADME
- EXPERIMENTAL_CONDITIONS: human
Label MET when selectivity ratio is strictly below 0.4; at or above that, label NOT MET.

The following compounds have reported results that may help.
Asked: Lab note: confirm whether the reported selectivity ratio for this compound is below 0.4, equality not counting. compound: COc1cc(OC)cc(C(=O)Nc2ccc(OC)cc2OC)c1
Given back: NOT MET

Asked: Is 0.4 strictly greater than the compound's reported selectivity ratio? compound: COc1cc(/C=C/c2ccc(OC)c(OC)c2)cc(OC)c1 [(E)-3,4,3',5'-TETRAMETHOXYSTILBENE]
Given back: MET

Asked: State whether 0.4 exceeds selectivity ratio recorded for COc1cc(/C=N/c2ccc(OC)cc2OC)cc(OC)c1 .
Given back: NOT MET

Asked: Lab note: confirm whether the reported selectivity ratio for this compound is below 0.4, equality not counting. compound: COc1cc(/C=C/c2cc(OC)c(OC)c(OC)c2)cc(OC)c1
Given back: MET

Asked: Item COc1cc(/C=C/c2cccs2)cc(OC)c1 : selectivity ratio beneath 0.4, strictly?
Given back: NOT MET

Next:
Asked: Does the reported selectivity ratio of COc1cc(/C=C/c2ccc(OC)cc2F)cc(OC)c1 stay below 0.4?
Given back: NOT MET

Asked: Answer whether the compound Oc1cc(O)cc(/C=C/c2ccc(O)cc2O)c1 [OXYRESVERATROL] has selectivity ratio strictly less than 0.4
Given back: NOT MET

Asked: Identify whether the compound COc1ccc(/C=C/c2cc(OC)cc(OC)c2)cc1 [TRISMETHOXYRESVERATROL] records selectivity ratio below 0.4.
Given back: NOT MET

Asked: Identify whether the compound COc1cc(/C=C/c2cc(OC)cc(OC)c2)cc(OC)c1 records selectivity ratio below 0.4.
Given back: MET
